# Tested on: MDA-MB-435
Outcomes: True (active), False (inactive)

{"Input smiles": "Oc1cc(N2CC2)c(O)cc1N1CC1", "Assigned class": "False"}
{"Input smiles": "O=C(CCCn1c2c(sc3ccccc32)c(=O)n2nnc(-c3ccccc3)c12)NCCc1cnc[nH]1", "Assigned class": "True"}
{"Input smiles": "CC1(C)CC(=O)C=C(/C=C/Sc2c(Cl)c(Cl)nc(Cl)c2Cl)C1", "Assigned class": "False"}

====

# System: MOLT-4 leukemia
# Protocol summary: NCI tumour cell line growth inhibition, 48 h
Property: TGI

{"Compound": "O=C(CN1CCCC1=O)CS(=O)(=O)c1ccccc1", "Property": "TGI", "Assay value": "> 100 µM"}
{"Compound": "Cc1cc2c(c(C(=O)NCC(=O)N[C@@H](C)C(=O)OCc3ccccc3)c1)Oc1c(cc(C)cc1C(=O)NCC(=O)N[C@@H](C)C(=O)OCc1ccccc1)S2", "Property": "TGI", "Assay value": "> 100 µM"}
{"Compound": "Oc1c(C(Nc2ccccn2)c2cccc(Oc3ccccc3)c2)ccc2cccnc12 (centres undefined)", "Property": "TGI", "Assay value": "> 100 µM"}
{"Compound": "Cc1ccc(F)c(NC(=O)Nc2ccc(-c3cccc4[nH]nc(N)c34)cc2)c1", "Property": "TGI", "Assay value": "> 42.9 µM"}
{"Compound": "Cc1cc(Cl)nc2ccc(Cc3ccc4nc(Cl)cc(C)c4c3)cc12", "Property": "TGI", "Assay value": "> 100 µM"}
{"Compound": "Cc1ccc([Se](=C(C(=O)c2ccccc2)C(=O)c2ccccc2)c2ccc(C)cc2)cc1", "Property": "TGI", "Assay value": "43.3 µM"}
{"Compound": "Cc1ncc([N+](=O)[O-])n1CC[N+](C)([O-])CCCCn1ccnc1[N+](=O)[O-] (centres undefined)", "Property": "TGI", "Assay value": "> 100 µM"}
{"Compound": "CSc1ncc2c(n1)-c1ccccc1OC2N1CCOCC1 (centres undefined)", "Property": "TGI", "Assay value": "> 100 µM"}
{"Compound": "C[C@H](c1ccc(F)cc1CCCC(=O)O)N(c1cc(F)ccc1F)S(=O)(=O)c1ccc(Cl)cc1", "Property": "TGI", "Assay value": "> 83 µM"}
{"Compound": "O=C1CC(/C=C/c2ccco2)=C(O)C1=O", "Property": "TGI", "Assay value": "60.8 µM"}
{"Compound": "COc1cccc2c1OC1Sc3ccccc3-c3nn(-c4ccccc4)c-2c31 (centres undefined)", "Property": "TGI", "Assay value": "> 100 µM"}
{"Compound": "CCOP(=O)(CCCC(O)CNc1nc(N)nc(Cl)c1N=Nc1ccc(Cl)cc1)OCC (centres undefined)", "Property": "TGI", "Assay value": "11.8 µM"}
{"Compound": "CC1(C)CC(=O)C=C(/C=C/Sc2c(Cl)c(Cl)nc(Cl)c2Cl)C1", "Property": "TGI", "Assay value": "> 100 µM"}
{"Compound": "N#CC1C[C@@H]2CC3(CCC2CN1C(=O)c1ccccc1)OCCO3 (some centres undefined)", "Property": "TGI", "Assay value": "> 100 µM"}
{"Compound": "CCN1c2ccccc2NC(=S)c2c1n[nH]c2-c1ccccc1", "Property": "TGI", "Assay value": "38.2 µM"}
{"Compound": "COC(=O)CNC(=O)C(Cc1ccccc1)NC(=O)c1ccc(-c2ccc(Cl)cc2Cl)o1 (centres undefined)", "Property": "TGI", "Assay value": "49.2 µM"}
{"Compound": "Cc1cc2nc3c(C#N)c4c(c(Nc5ccc(F)cc5)n3c2cc1C)CCC4", "Property": "TGI", "Assay value": "> 100 µM"}
{"Compound": "O=C(COc1ccccc1Cl)N1N=C(c2ccccc2)CC1(O)c1ccccc1 (centres undefined)", "Property": "TGI", "Assay value": "58.8 µM"}
{"Compound": "O=c1[nH]c2ccccc2c(O)c1Cc1ccccc1", "Property": "TGI", "Assay value": "> 100 µM"}
{"Compound": "CCc1ccccc1NC(=O)C(C#N)C1=C(Cl)C(=O)c2ccccc2C1=O (centres undefined)", "Property": "TGI", "Assay value": "> 100 µM"}
{"Compound": "COc1cc2c3c(n(CCCN4CCNCC4)c(=O)c2cc1OC)-c1cc2c(cc1C3=O)OCO2", "Property": "TGI", "Assay value": "0.533 µM"}
{"Compound": "O=C(NC(=Nc1ccccc1)SCSC(=Nc1ccccc1)NC(=O)c1ccco1)c1ccco1", "Property": "TGI", "Assay value": "> 100 µM"}
{"Compound": "N[C@H]1c2c(Br)sc(Br)c2C(=O)[C@H]1O", "Property": "TGI", "Assay value": "> 22 µM"}
{"Compound": "COC(=O)C1=COC2OC3C(C(C)O)C(=O)OC34C=CC1C24 (centres undefined)", "Property": "TGI", "Assay value": "> 100 µM"}
{"Compound": "ClCCCSSCCCCl", "Property": "TGI", "Assay value": "7.42 µM"}
{"Compound": "COc1cc2c(NCCCCCO)ncnc2c(OC)c1OC", "Property": "TGI", "Assay value": "> 100 µM"}
{"Compound": "CNC(=O)c1nn(C)c2c1C(C)(C)Cc1cnc(Nc3cccc(N4CCN(C)CC4)c3)nc1-2", "Property": "TGI", "Assay value": "10.6 µM"}
{"Compound": "O=C(C=Nc1ccccc1C(=O)[O-])c1cccs1.O=C(C=Nc1ccccc1C(=O)[O-])c1cccs1.[Ni+2]", "Property": "TGI", "Assay value": "> 100 µM"}
{"Compound": "O=C(c1ccccc1)C(Cl)C(Cl)c1ccccc1 (centres undefined)", "Property": "TGI", "Assay value": "6.25 µM"}
{"Compound": "COc1cccc(C=O)c1C(=O)c1cc(O)ccc1O", "Property": "TGI", "Assay value": "27.5 µM"}
{"Compound": "COC(=O)C1CSC(c2csc(CCN)n2)=N1 (centres undefined)", "Property": "TGI", "Assay value": "> 100 µM"}
{"Compound": "Fc1ccc(-c2sc(-c3ccsc3)cc2Cc2ccsc2)cc1", "Property": "TGI", "Assay value": "> 10 µM"}
{"Compound": "c1coc(-c2nccc3c2[nH]c2ccccc23)c1", "Property": "TGI", "Assay value": "> 100 µM"}
{"Compound": "COc1ccc2c(c1)Oc1cc(O)ccc1[C@H]2c1ccccc1C(=O)NC(C)c1ccccc1 (some centres undefined)", "Property": "TGI", "Assay value": "64.8 µM"}
